// values below are reported IC50
- Assay system: HLA-DR DRB1*04:01 (Homo sapiens, UniProt P01903+P01911, A100K/A169T/F76Y/I96L/K127E/L162R/M171V/N62H/P40V/Q125Y/R42H/S133A/S149N/S66Y/V115G/V209L/W38E)
- Procedure summary: In vitro HLA binding assay with purified HLA-DR molecules
- Assay setup: purified HLA-DR molecule; high affinity binding = IC50 <1,000 nM
Ends that are not written are not given here.
Metric name: IC50

- GVGLVLYNTEKGRHP [EXP1-P20]: 26 nM
- LGVVSTVLLGGVGLV [EXP1-P18]: 2050 nM
- RKSKYKLATSVLAGLL [EXP1-P15]: 1.2 nM
- NANPDADSESNGEPN [EXP1-P25]: 16700 nM
- SVFFLALFFIIFNKE [EXP1-P02]: 4200 nM
- VEVNKRKSKYKLATS [EXP1-P14]: 58 nM
- EPLIDVHDLISDMIK [EXP1-P10]: 27500 nM
- VLAGLLGVVSTVLLGGV [EXP1-P17]: 1260 nM
- KLATSVLAGLLGVVS [EXP1-P16]: 380 nM

###

// values below are reported IC50
- Assay system: HLA-DR DRB1*15:01 (Homo sapiens, UniProt P01903+P01911)
- Procedure summary: In vitro HLA binding assay with purified HLA-DR molecules
- Assay setup: purified HLA-DR molecule; high affinity binding = IC50 <1,000 nM
Ends that are not written are not given here.
Metric name: IC50

• VLAGLLGVVSTVLLGGV [EXP1-P17] = 5 nM
• KLATSVLAGLLGVVS [EXP1-P16] = 2270 nM
• GVGLVLYNTEKGRHP [EXP1-P20] = 24 nM
• NANPDADSESNGEPN [EXP1-P25] = 1100 nM
• EPLIDVHDLISDMIK [EXP1-P10] = 29200 nM
• LGVVSTVLLGGVGLV [EXP1-P18] = 300 nM
• VEVNKRKSKYKLATS [EXP1-P14] = 6100 nM
• SVFFLALFFIIFNKE [EXP1-P02] = 1550 nM
• RKSKYKLATSVLAGLL [EXP1-P15] = 195 nM

###

- Assay system: HLA-DR DRB3*01:01 (Homo sapiens, UniProt P01903+P79483)
- Procedure summary: In vitro HLA binding assay with purified HLA-DR molecules
- Assay setup: purified HLA-DR molecule; high affinity binding = IC50 <1,000 nM
Ends that are not written are not given here.
// assign class 1 if IC50 falls strictly below 10 µM, else class 0 (ties count as class 0)

• VLAGLLGVVSTVLLGGV [EXP1-P17] = class 0
• KLATSVLAGLLGVVS [EXP1-P16] = class 1
• RKSKYKLATSVLAGLL [EXP1-P15] = class 1
• VEVNKRKSKYKLATS [EXP1-P14] = class 0
• LGVVSTVLLGGVGLV [EXP1-P18] = class 0
• SVFFLALFFIIFNKE [EXP1-P02] = class 0
• EPLIDVHDLISDMIK [EXP1-P10] = class 1

###

- Assay system: HLA-DR DRB1*13:02 (Homo sapiens, UniProt P01903+P01911, A100E/A169T/K41T/L162R/M171V/P40S/Q125H/Q178H/Q39Y/Q99D/R42S/S66N/T262R/V115G/W38E/Y61H)
- Sequence (P01903 26-254 limits assumed, other chains not shown): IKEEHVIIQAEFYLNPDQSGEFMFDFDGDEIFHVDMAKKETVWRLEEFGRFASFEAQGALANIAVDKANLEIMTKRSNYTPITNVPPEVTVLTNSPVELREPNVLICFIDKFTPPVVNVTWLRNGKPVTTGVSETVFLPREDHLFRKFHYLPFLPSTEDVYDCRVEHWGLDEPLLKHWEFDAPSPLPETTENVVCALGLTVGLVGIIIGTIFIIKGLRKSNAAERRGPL
- Procedure summary: In vitro HLA binding assay with purified HLA-DR molecules
- Assay setup: purified HLA-DR molecule; high affinity binding = IC50 <1,000 nM
- Protocol: In vitro binding assays with 14 of the peptides that elicited a response were performed using purified HLA-DR molecules, as previously described (Table 3) ([37]). […] To test this hypothesis, we measured the in vitro capacity of the most frequently recognized EXP1 peptides to bind to a panel of 17 of the most prevalent human HLA-DR molecules, since the majority of HLA class II restricted CD4+ T cell responses are presented by these molecules ([49], [50]). […]
pIC50: −log10 of the molar value. Ends that are not written are not given here.
Metric name: pIC50

• GVGLVLYNTEKGRHP [EXP1-P20] = 4.77
• RKSKYKLATSVLAGLL [EXP1-P15] = 4.41
• VLAGLLGVVSTVLLGGV [EXP1-P17] = 4.48
• LGVVSTVLLGGVGLV [EXP1-P18] = 5.49

Origin of the recorded values: paper PMC6993587
